# assay.system: CK2α-pAzF coupled to DBCO-Sulfo-Cy5 (human) (UniProt P68400)
# experiment.notes: MST; B2 titrated (7.6 nM to 125 or 250 µM) to 100 nM fluorophore-labelled CK2α-DBCO-Sulfo-Cy5 or CK2β^1-193-Flu; 50 mM Tris/HCl pH 7.5, 25 mM NaCl, 20 mM MgCl2, Tween-20, DMSO; 37 °C, MST power 60%; Monolith NT.115; three independent measurements
readout.name: pKd
// scale note: pKd = -log10(conc_M); give the bare number

stdin: Name the recorded pKd for DCRGLIVMIKLH [peptide B2 (free synthetic peptide)] .
stdout: 5.67

Origin of measurements: paper PMC5374410
